This listing pairs molecules with measured TGI.
Test system: CAKI-1 renal
Assay: NCI tumour cell line growth inhibition, 48 h

For orientation, consider the following solved cases.
>>> endpoint_result("COc1ccc(-c2c3c(nc4nc(SCCc5ccccc5)nc(N)c24)CCCC3)cc1OC")
"> 100 µM"
>>> endpoint_result("COc1ccc(-c2c(N)n(-c3nc4ccccc4s3)c(=O)c3cc([N+](=O)[O-])ccc23)cc1")
"48.5 µM"
>>> endpoint_result("N#C/C(=C\\c1ccccc1)C(=O)Nc1nnc(-c2ccccc2)o1")
"73.2 µM"
>>> endpoint_result("COc1ccc(N=c2ssc3c(=S)ssc23)cc1")
"> 100 µM"

Ask | Fill in the blank: the reported TGI of [N-]=[N+]=Nc1c(-c2ccccc2)c(Cl)nc2ccccc12 is ____.
Reply | > 100 µM

Ask | Can you handle CCOC(=O)C(=O)Nc1c(CC)cccc1C(C)C next?
Reply | > 100 µM

====

Tested on: SNB-19 CNS
Test: NCI tumour cell line growth inhibition, 48 h; in the data active means GI50 below about 0.43 µM; inactive means the rest
Write down the outcome that applies. Available outcomes: active, inactive

>>> label_value("COc1cc2nc(N3CCCC3)nc(NCC3CCCCC3)c2cc1OC")
"inactive"
>>> label_value("Cc1cc(N/N=C/c2nc(-c3ccc(Br)cc3)oc2C)c2cc(Cl)ccc2n1")
"inactive"
>>> label_value("COC(=O)C(Cc1ccccc1)NC(=O)NC(=O)NC(=O)CI (stereo not given)")
"inactive"
>>> label_value("Cc1ccc(NC(=O)/C=C/c2ccccc2)c(C(N)=O)c1")
"inactive"
>>> label_value("CCN=C1C=CC(=C(c2ccc(N)cc2)c2ccc(N(CC)CC)c(C)c2)C=C1")
"active"

Ask | Name the outcome recorded for COc1cc2c(c(OC)c1OC)-c1ncc3cc(OC)c(OC)c(OC)c3c1C2 in the assay.
Reply | inactive

Ask | // same read-out, input: O=C1c2ccccc2-c2c1c1ccc([N+](=O)[O-])cc1c(=O)n2CCCBr
Reply | inactive

Ask | What do you get for CCCn1c(C)nc2c1C(=O)c1ccccc1C2=O ?
Reply | inactive

Ask | Now the compound COc1ccc(-c2cc(-c3ccccc3)nc(SCCCC(=O)NO)n2)cc1
Reply | inactive

Ask | And what about the compound O=[N+]([O-])c1cccc(-c2nc3sccn3c2-c2ccnc(NCCCNS(=O)(=O)c3cccc(F)c3)n2)c1 ?
Reply | inactive

====

System: CCRF-CEM leukemia
Assay: NCI tumour cell line growth inhibition, 48 h
READOUT_LABEL: TGI

Consider the following illustrative entries.
>>> endpoint_result("CCOC(=O)c1c(N2CCCC2)nsc1Nc1ccccc1")
"> 100 µM"
>>> endpoint_result("COc1ccc([C@@H]2ON(C)[C@H]3CN(C)C(=O)[C@@H]23)cc1")
"> 100 µM"
>>> endpoint_result("CN(C)c1ccc(/C=N\\NC(=O)CSCC(=O)N/N=C/c2ccc(N(C)C)cc2)cc1")
"> 100 µM"
>>> endpoint_result("Cc1ccc(N2C(=O)C3c4[nH]c5ccccc5c4C4CCC(C(C)(C)C)CC4C3C2=O)cc1 (configuration not stated)")
"15.4 µM"
>>> endpoint_result("COC(=O)C1CCC(=O)N1CN(C(C)=O)c1ccccc1 (configuration not stated)")
"> 100 µM"
>>> endpoint_result("N#CC(C(=O)CCC(=O)Nc1cccc(Cl)c1)c1ccccc1 (configuration not stated)")
"> 100 µM"
>>> endpoint_result("CCOC(=O)c1oc2ccc(OC)c3c2c1CCC3")
"> 100 µM"
>>> endpoint_result("O=C(/C(=C/c1ccccc1)CN1CCCCC1)c1ccccc1")
"> 45.3 µM"
>>> endpoint_result("CC1C(c2ccccc2)OP(=O)(OC(C#N)c2ccccc2)N1C (configuration not stated)")
"> 100 µM"
>>> endpoint_result("C=C1CC2OC2(C(=O)O[C@H]2CCC3[C@@H]4CCC5=CC(=O)CC[C@]5(C)C4CC[C@@]32C)C1=O (some centres not stated)")
"12.7 µM"

Ask | Given CN(/N=C(\C(=O)O)c1ccccc1)C1=NCCCN1 , state its recorded TGI.
Reply | > 100 µM

Ask | Same read-out for CN(C)CCCNC(=O)N/N=C/c1cccc([N+](=O)[O-])c1 ?
Reply | > 100 µM

====

Entries and their log10 of TGI
Test system: SW-620 colon
Test: NCI tumour cell line growth inhibition, 48 h
Friendly reminder: values = log10 of TGI, unit µM.

// known answers, use as guide
>>> endpoint_result("CCC1C(c2cc(OC)c(OC)c(OC)c2)c2cc3c(cc2OC1N1CCCC1)OCO3 (stereo unspecified)")
1.66
>>> endpoint_result("C=CC(=O)N1CCN(c2ccc3cccc(NC(=O)c4cnc(C)cn4)c3n2)CC1")
1.54
>>> endpoint_result("COc1ccc(N=c2ssc3c(=S)ssc23)cc1")
1.55
>>> endpoint_result("COc1cccc(C=Nc2cc(C)ccn2)c1O.COc1cccc(C=Nc2cc(C)ccn2)c1O.[Cu]")
1.72

Ask | log10 of TGI for COc1cc2nc(N3CCCC3)nc(NCC3CCCCC3)c2cc1OC ?
Reply | 0.46

====

System: U251 CNS
Assay: NCI tumour cell line growth inhibition, 48 h
Collected TGI values appear next to each entry.
Response body: numeric value in µM, unit text excluded.

Example entries begin here.
>>> endpoint_result("COc1cccc(NC(=O)c2sc3nc4c(cc3c2N)CN(Cc2ccccc2)CC4)c1")
19.2
>>> endpoint_result("CCOc1ccc2nc(NC(=O)c3c/c(=N\\NC(=O)C[N+](C)(C)C)c4ccc(O)cc4o3)sc2c1")
10.5
>>> endpoint_result("COc1cc2nc(N3CCCC3)nc(NCC3CCCCC3)c2cc1OC")
2.64

Ask | Entry O=c1oc2ccccc2c(Nc2ccc3c(c2)S(=O)(=O)c2ccccc2O3)c1[N+](=O)[O-] has what TGI?
Reply | 42.1

====

Tested on: MDA-MB-231 breast
Test: NCI tumour cell line growth inhibition, 48 h; in the data active = GI50 below about 0.43 µM; inactive = the rest
# output must be one of T for active, F for inactive

Solved entries (count: 5):
>>> label_value("N/C(=N\\N=C\\c1ccc(-c2ccccc2)cc1)N[N+](=O)[O-]")
"F"
>>> label_value("C=CC(=O)N(C)[C@H]1C[C@H]2OC(C)(C1OC)n1c3ccccc3c3c4c(c5c6ccccc6n2c5c31)C(=O)NC4 (stereo partly specified)")
"T"
>>> label_value("COc1ccc(-c2n[nH]nc2-c2cc(OC)c3c(c2OC)OCO3)cc1")
"F"
>>> label_value("O=C(C1CCCCC1)[C@@H]1[C@]2(C(=O)NC3CCCCC32)[C@@H]2CCCN2[C@@]12C(=O)NC1CCC(Cl)CC12 (stereo partly specified)")
"F"
>>> label_value("O=C1c2c(c3c4ccccc4[nH]c3c3ccc4ccccc4c23)C(=O)N1CCN1CCCCC1")
"F"

Note: attention shifts to another entry.
Ask | Hi team, can someone confirm the assay call for Nc1ncnc2[nH]ncc12 ?
Reply | F

====

System: IGROV1 ovarian
Assay: NCI tumour cell line growth inhibition, 48 h
Class Satisfied: TGI at least 50 µM. Class Not satisfied: TGI below 50 µM.

>>> label_value("CCCCCCc1cc(C(=O)Nc2cccc(C(F)(F)F)c2)nc(N)n1")
"Satisfied"

Ask | In plain terms: is recorded TGI at least 50 µM for COc1ccc(C(OCC2OC(n3ccc(NC(=O)c4ccccc4)nc3=O)C(O)C2O)(c2ccccc2)c2ccccc2)cc1 (stereo not given) ?
Reply | Not satisfied

Ask | What would you report for Cn1c(/C=C(\O)c2ccc(Cl)cc2)nc2ccccc21 ?
Reply | Satisfied

Ask | What about this compound? O=C1C(=O)N(c2ccc(Cl)c(Cl)c2)C(=O)C(=O)C1c1nc2ccccc2s1
Reply | Satisfied

Ask | And what about the compound C=CC(=O)Nc1cccc(C)c1Nc1cc(-c2cccnc2Cc2c(C)c(OC)cc(OC)c2C)ncn1 ?
Reply | Satisfied

Ask | Cool, now COc1cc2c(cc1OC(=O)CC(C)O)C1C(OC2=O)C(OC(C)=O)C=C2CCN(C)[C@H]21 (stereo not given in full)
Reply | Satisfied

Ask | Let us now turn to O=C(NN1C(=O)CSC12CCCCC2)c1[nH]c2ccc(F)cc2c1-c1ccccc1
Reply | Not satisfied

Ask | Another compound to look at: CCCC(=O)NC1=C(NCC)C(=O)c2ccccc2C1=O
Reply | Satisfied

Ask | Also, Cc1sc(Cc2ccccc2)nc1-c1ccc(N)cc1 please.
Reply | Satisfied

Ask | Please answer likewise for O=c1oc2ccccc2c2c(=O)c3ccc(OC/C(=N/O)c4ccc(Cl)cc4)cc3oc12
Reply | Satisfied

====

Test system: SF-295 CNS
Experiment: NCI tumour cell line growth inhibition, 48 h; in the data active = GI50 below about 0.43 µM; inactive = the rest
Entry note: the call must match one of Yes (active), No (inactive)

>>> label_value("COc1ccc(C2CC(c3cc(OC)c(OC)c(OC)c3)=NN2C(C)=O)cc1OCC(=O)Nc1nc2ccc(C(F)(F)F)cc2s1 (stereo not drawn)")
"No"

Ask | What outcome does the record of this test show for Cc1c2cc[n+](CCN3CCCCC3)cc2c(C)c2c1[nH]c1ccc(O)cc12 ?
Reply | No
